TARGET_OF_ASSAY: HLA-A*02:02
ASSAY_PROTOCOL: IEDB peptide-MHC binding, purified MHC/competitive/radioactivity; bounds were set here for any values at or beyond the usual limits of such assays
CONDITIONS_USED: source organism: Vaccinia virus WR
Rule for this label: 1 means IC50 is less than 600 nM; -1 means IC50 is at least 600 nM.

biopolymer_sequence=RAGYSIVEL answer_label=-1

*Q* Dear reviewer, please state whether DIKYISRDEL has IC50 strictly beneath 600 nM.
*A* -1

*Q* A record lists WISDNTHIYL . Is its IC50 below 600 nM?
*A* 1

*Q* Dear colleague, could you confirm whether IC50 of DLNIFMTLV falls below 600 nM? Thanks.
*A* -1

*Q* For SANMDWRSLT , is the recorded IC50 below the cut-off of 600 nM?
*A* -1

*Q* Given TTNNLLEQL , is recorded IC50 strictly lower than 600 nM?
*A* 1

*Q* Criterion: IC50 strictly below 600 nM. Is it met by KISVEKIKQT ?
*A* -1

*Q* hey, is IC50 for STDQDTMLFA lower than 600 nM or not?
*A* -1

*Q* IC50 strictly < 600 nM for this sequence? MVEYLENQL
*A* 1

*Q* Is it true that IC50 reported for VISVIFYFI is less than 600 nM?
*A* 1

*Q* Please check: IC50 for NLYISDYKML , strictly under 600 nM or not?
*A* -1

*Q* Field: below-cutoff. Rule: recorded IC50 strictly less than 600 nM. Subject: EVTPEYIKDL
*A* -1

*Q* Does the reported IC50 of the following sequence sit strictly below 600 nM? EMKYALINLV
*A* -1

*Q* Say whether its IC50 is strictly beneath 600 nM. Entry: STAEQLSKYV
*A* -1

*Q* Does this sequence meet the criterion IC50 < 600 nM? MVTDKTAYI
*A* 1

*Q* IC50 under 600 nM? Item: FVATFRDMLL
*A* 1

*Q* Below 600 nM on IC50? Entry AVIPFDDIV
*A* 1

*Q* Hello, is IC50 of the following sequence strictly smaller than 600 nM? ELAYYNSCM
*A* 1

*Q* Is IC50 strictly under 600 nM for the entry LITLILSNKL ?
*A* 1

----------
TARGET_OF_ASSAY: HLA-A*02:02
ASSAY_PROTOCOL: IEDB peptide-MHC binding, purified MHC/competitive/radioactivity; bounds were set here for any values at or beyond the usual limits of such assays
CONDITIONS_USED: source organism: Vaccinia virus WR
pIC50: −log10 of the molar value.
Would you mind labelling by pIC50? At or over 6 is class 1, under is class 0.

Please review the following examples before continuing.
biopolymer_sequence=FTEGKINPLL target_of_assay=HLA-A*02:02 answer_label="class 1"
biopolymer_sequence=LTTVFIKYV target_of_assay=HLA-A*02:02 answer_label="class 0"
biopolymer_sequence=TLNTLITLIL target_of_assay=HLA-A*02:02 answer_label="class 1"
biopolymer_sequence=VTYNIKPVIV target_of_assay=HLA-A*02:02 answer_label="class 0"
biopolymer_sequence=KQIMECSRML target_of_assay=HLA-A*02:02 answer_label="class 1"

*Q* Quick check, pIC50 >= 6? GIKNLKSLL
*A* class 0

*Q* Test whether the sequence NTNQGNILM records pIC50 of 6 or higher.
*A* class 0

*Q* Tell me whether pIC50 is at least 6 here: GIYNCCESNI
*A* class 1

*Q* Hi team, for EATFIDVHI , is the recorded pIC50 at or above 6?
*A* class 0

*Q* Determine whether measured pIC50 meets or exceeds 6 for NTISGNIYSA
*A* class 1

----------
Entries and their IC50
TARGET_OF_ASSAY: HLA-A*02:01
ASSAY_PROTOCOL: IEDB peptide-MHC binding, cellular MHC/competitive/fluorescence; bounds were set here for any values at or beyond the usual limits of such assays
CONDITIONS_USED: source organism: Vaccinia virus WR
Please respond with the number in µM and leave the unit unwritten.

Here's what some known entries look like.
biopolymer_sequence=VVYNPSTMST readout_type=IC50 result_unit=µM quantitative_readout=57.8
biopolymer_sequence=YVSTGESSI readout_type=IC50 result_unit=µM quantitative_readout=11.4
biopolymer_sequence=TASGGKVLI readout_type=IC50 result_unit=µM quantitative_readout=37.2
biopolymer_sequence=AIIRQRNDEI readout_type=IC50 result_unit=µM quantitative_readout=17.4
biopolymer_sequence=DLAFLIKFIT readout_type=IC50 result_unit=µM quantitative_readout=6.32

Entry GINNVQSLI : IC50 on HLA-A*02:01 = 11.7

Record PASISSVLTI has HLA-A*02:01 IC50 equal to 5.91

The sequence TVDVRNIVT , when measured on HLA-A*02:01, yielded IC50 of 10.5

The measured IC50 that KAMHDKKIDI showed for HLA-A*02:01 is 50.6

----------
This section presents sequences with their documented log10(IC50) values.
TARGET_OF_ASSAY: HLA-A*02:02
ASSAY_PROTOCOL: IEDB peptide-MHC binding, purified MHC/competitive/radioactivity; bounds were set here for any values at or beyond the usual limits of such assays
CONDITIONS_USED: source organism: Vaccinia virus WR
Record value = log10 of IC50 given in nM.

// worked examples, log10(IC50) included
biopolymer_sequence=ETIEILRNYL readout_type=log10(IC50) quantitative_readout=2.68
biopolymer_sequence=IIMAINVFT readout_type=log10(IC50) quantitative_readout=1.59
biopolymer_sequence=ALALEQYGI readout_type=log10(IC50) quantitative_readout=-0.16
biopolymer_sequence=RLYDYFTRVT readout_type=log10(IC50) quantitative_readout=3.39

Noted log10(IC50) for LLEQLIENI , tested on HLA-A*02:02: 2.85

Given the sequence YASLTTIGT and test system HLA-A*02:02, the measured log10(IC50) is 2.61

With HLA-A*02:02 as the test system, PLHIVCSKT showed log10(IC50) of 3.00

----------
TARGET_OF_ASSAY: HLA-A*02:02
ASSAY_PROTOCOL: IEDB peptide-MHC binding, purified MHC/competitive/radioactivity; bounds were set here for any values at or beyond the usual limits of such assays
CONDITIONS_USED: source organism: SARS-CoV1
The reader will find reported IC50 values listed item by item below.
Numbers only; they are read as nM.

biopolymer_sequence=LIANIFTPLV readout_type=IC50 result_unit=nM quantitative_readout=0.4

For reference, reported IC50 for IVNSVLLFL stands at 7.1

For this sequence ( MLLTFLTSL ), measured IC50 is 6.2

The recorded IC50 for VVFLHVTYV is 7.8

----------
Recorded pIC50 values for a group of sequences are listed next.
TARGET_OF_ASSAY: HLA-A*02:03
ASSAY_PROTOCOL: IEDB peptide-MHC binding, purified MHC/competitive/radioactivity; bounds were set here for any values at or beyond the usual limits of such assays
CONDITIONS_USED: source organism: Mammarenavirus choriomeningitidis
Reminder that pIC50 means the negative base-10 logarithm of the concentration expressed in mol/L.

See these solved cases before continuing.
biopolymer_sequence=ALMDCIIFES readout_type=pIC50 quantitative_readout=7.80
biopolymer_sequence=FSTSAYLISI readout_type=pIC50 quantitative_readout=7.85
biopolymer_sequence=RNHLRDLMGV readout_type=pIC50 quantitative_readout=6.13
biopolymer_sequence=FMLNVSYLC readout_type=pIC50 quantitative_readout=5.90
biopolymer_sequence=LNMFVSDQV readout_type=pIC50 quantitative_readout=6.06
biopolymer_sequence=AVYNFATCGI readout_type=pIC50 quantitative_readout=8.14
biopolymer_sequence=KCMSAALKNL readout_type=pIC50 quantitative_readout=6.71
biopolymer_sequence=LSAEELMSL readout_type=pIC50 quantitative_readout=6.15
biopolymer_sequence=LNQTVYSLV readout_type=pIC50 quantitative_readout=5.82
biopolymer_sequence=ALMDLLMFS readout_type=pIC50 quantitative_readout=6.98

Lab book: pIC50 of NSLILLECFV noted as 7.33

pIC50 for LMDCIIFES is 6.08

----------
TARGET_OF_ASSAY: HLA-A*02:03
ASSAY_PROTOCOL: IEDB peptide-MHC binding, purified MHC/competitive/radioactivity; bounds were set here for any values at or beyond the usual limits of such assays
CONDITIONS_USED: source organism: SARS-CoV1
pIC50: −log10 of the molar value.
Category | rule: reported pIC50 within range, see range A = under 8, range B = from 8 up to 9, range C = 9 and over

*Q* // return the class label for KLLIVLTCI
*A* range A

*Q* Hi there! Could you help me figure out the category for VVFLHVTYV please?
*A* range C

*Q* # bin lookup: classify YMLFTKFFYL by its pIC50
*A* range A

*Q* Form: Item = FLAFVVFLLV ; Class = ?
*A* range A

*Q* Class (by measured pIC50) for LVIGVAFLAV
*A* range A

*Q* GET /class?item= TQWSLFFFV
*A* range A

*Q* Which pIC50 category applies to CVMYASALV here?
*A* range B

*Q* // return the class label for VLAWLYAAV
*A* range C

*Q* Please indicate the class for KLIEYSDFA based on its pIC50.
*A* range C

*Q* # classify by pIC50 band: KLWAQCVQL
*A* range A

*Q* Exercise: read the entry GALDVSASV and state which class it falls under.
*A* range B

*Q* Class (by measured pIC50) for TLIDFYLCFL
*A* range B

*Q* Please classify: NMLRIMASL
*A* range A

*Q* Could you tell me which band LMLKATLLCV belongs to?
*A* range A

*Q* Assign a bin to SMWALVISV
*A* range B

*Q* Lab log: YASALVLLI — assign pIC50 category
*A* range B

*Q* Given LLVTLAILTA , name the class its pIC50 places it in.
*A* range A

*Q* Note: place this sequence into its band. Item: LLFLVLIMLI
*A* range A

*Q* Which pIC50 category applies to FVDEFYAYL here?
*A* range B

*Q* Form: Item = SQMETDFLEL ; Class = ?
*A* range A

*Q* Where would ALVCYIVMPV land among the classes by reported pIC50?
*A* range B

*Q* Tag the class for TLMNVITLV
*A* range C

*Q* For FLMSFTILCL , which pIC50 bin applies?
*A* range A

*Q* Please classify: QLMCQPILLL
*A* range A

*Q* Where would ALDGVLSTFV land among the classes by reported pIC50?
*A* range A

*Q* Into which category would you place YLMCLSPLMA ?
*A* range C

*Q* For this sequence, which bin applies? YALCTLLHL
*A* range A

*Q* Tag the class for NLWNTFTRL
*A* range A

*Q* Which bin, given its pIC50, does SLVTSFLLM occupy?
*A* range A

*Q* Which class is correct for the following sequence? YLMCLSPLM
*A* range C

The reported numbers originate from the Immune Epitope Database (IEDB).
